tested on: Measles morbillivirus; test: Antiviral activity against Measles virus MVi/Alaska USA/16.00 genotype H2 infected in african green monkey Vero cells assessed as reduction in viral-induced cytopathogenicity; format: functional, organism-based; conditions: MVi/Alaska USA/16.00 genotype H2, Vero
REPORTED ENDPOINT: EC50

Q. # return recorded EC50 for input Cc1nnc(NC(=O)C(C)Sc2nc3ccccc3n2-c2ccc(F)cc2)nc1C (racemic)
A. 17.4 µM

Q. Supply reported EC50 belonging to this compound: COc1ccc(-n2c(SC(C)C(=O)Nc3nnc(C)c(C)n3)nc3ccccc32)cc1 (racemic)
A. 9.3 µM

Q. # return recorded EC50 for input COc1ccc(-n2c(SC(C)C(=O)Nc3ccc(Cl)cn3)nc3ccccc32)cc1 (racemic)
A. > 75 µM

Q. Provide one value: measured EC50 of COc1ccc(-n2c(SC(C)C(=O)Nc3nc(C)cc(Cl)n3)nc3ccccc32)cc1 (racemic)
A. > 75 µM

Q. Check the records and state EC50 for COc1ccc(-n2c(SC(C)C(=O)Nc3cc(C)nn3C)nc3ccccc32)cc1 (racemic)
A. 0.5 µM

Q. Assign EC50 to the following record: COc1ccc(-n2c(SC(C)C(=O)Nc3nc(C)c(Br)cc3Br)nc3ccccc32)cc1 (racemic)
A. 0.5 µM

Q. Quickly give me recorded EC50 for CCOc1ccc(-n2c(SC(C)C(=O)Nc3ncc(Cl)cc3Cl)nc3ccccc32)cc1 (racemic)
A. 0.1 µM

Q. Given the compound COc1ccc(-n2c(SC(C)C(=O)Nc3ncc(C(F)(F)F)cc3Cl)nc3ccccc32)cc1 (racemic) , write its reported EC50.
A. 0.4 µM

Q. Quick one: give measured EC50 for COc1ccc(-n2c(SC(C)C(=O)Nc3nc(C)cs3)nc3ccccc32)cc1 (racemic)
A. 2.8 µM

Q. Determine its reported EC50: Cc1ccc(NC(=O)C(C)Sc2nc3ccccc3n2Cc2ccccc2)c(Cl)c1 (configuration not stated)
A. 0.4 µM

Q. Answer with the recorded EC50 for the compound listed here: COc1ccc(Cn2c(SC(C)C(=O)Nc3ccc(C)cc3Cl)nc3ccccc32)cc1 (configuration not stated)
A. 0.7 µM

Q. Write down EC50 measured for item COc1ccc(-n2c(SC(C)C(=O)Nc3ncc(Cl)cc3Cl)nc3ccccc32)cc1 (configuration not stated)
A. 0.35 µM

Q. Return EC50 for the following compound: CCOc1ccc(-n2c(SC(C)C(=O)Nc3cc(C)cc(C)n3)nc3ccccc32)cc1 (racemic)
A. 1.2 µM

Q. Give EC50 for the following compound: COc1ccc(-n2c([S+]([O-])C(C)C(=O)Nc3ccc(C)cc3Cl)nc3ccccc32)cc1 (configuration not stated)
A. 1.3 µM

Q. Return the recorded EC50 value; entry: CC(Sc1nc2ccccc2n1-c1ccc(F)cc1)C(=O)Nc1ncc(Cl)cc1Cl (racemic)
A. 0.1 µM

Q. Please supply the value of reported EC50 for the item COc1ccc(-n2c(SC(C)C(=O)Nc3cc(C)no3)nc3ccccc32)cc1 (racemic)
A. 0.4 µM

Q. Consider the compound COc1ccc(Cn2c(NC(C)C(=O)Nc3ccc(C)cc3Cl)nc3ccccc32)cc1 (configuration not stated) and give its recorded EC50.
A. > 150 µM
